# experimentalProtocol: human hepatoma cell viability loss – ATP luminescence, cytotoxicity control for P. falciparum antimalarial project, primary screen (AID 2303);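 further: 0% = DMSO wells and 100% = digitonin-killed cells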
# experimentalSetup: HepG2 viability, 24-48 h, at 10 µM, active compounds read high
Assignment: determine reported inhibition for the given compounds.
Write down the numeric answer in % and omit the unit.

Fill in the blank: the reported inhibition of CN(C)CCCOc1ccc(CN2CC[C@H](NC(=O)c3ccc(Cl)c(Cl)c3)C2)cc1Br is ____. 11

Next record, please: CCn1cc2c3c(cc(C(=O)N[C@@H](Cc4ccccc4)[C@H](O)CNC4CCOCC4)cc31)N(C)S(=O)(=O)CC2 -10

Next record, please: Cc1ccc(C)c(-n2c(SCC(=O)Nc3ccc(C(N)=O)cc3)nnc2-c2cccc(Cl)c2)c1 6

Next record, please: c1ccc(CCNCc2ccc(-c3ccc(CNc4ccc5ncccc5c4)cc3)cc2)cc1 36

Next record, please: O=C(/C=C/c1ccc(Cl)c(Cl)c1)NCC1CCN(Cc2ccc(O)cc2)CC1 4

Next record, please: CC(C)[C@H](NC(=O)c1ccc(O)c(-c2ccc(Cl)c(Cl)c2)c1)C(=O)NC1CCCCCC1 -4

Next record, please: Cc1ccc2[nH]c3c(NCCN(C)C)ncnc3c2c1 9

Next record, please: CCn1cnc2c(Nc3cccc([N+](=O)[O-])c3)nc(N3CCC(N4CCCCC4)CC3)nc21 31

Next record, please: Cc1ccc(C2CCN(CCCCNC(=O)c3ccc(-c4ccc(C#N)cc4)cc3)CC2)c(O)c1 45

Next record, please: COc1cccc(C2CCN(CCN3CCC(NC(=O)c4ccc(-c5ccc(C#N)cc5)cc4)CC3)CC2)c1 28

Next record, please: CN=C(N)c1ccc(NC(=O)c2ccc(C(=O)Nc3ccc(C(N)=NC)cc3)cc2)cc1 6

Next record, please: O=C(Nc1ccc([N+](=O)[O-])cc1Cl)c1cc2ccccc2cc1O 6

Next record, please: Cc1cccc2[nH]c(-c3ccc(-c4cccc(NC(=O)NCc5ccccc5)c4)cc3)nc12 25

Next record, please: CC(=NN=C(N)N)C(=O)Nc1ccc(Cl)c(Cl)c1 -3

----------
# experimentalProtocol: human hepatoma cell viability loss – ATP luminescence, cytotoxicity control for P. falciparum antimalarial project, primary screen (AID 2303);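 further: 0% = DMSO wells and 100% = digitonin-killed cells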
# experimentalSetup: HepG2 viability, 24-48 h, at 10 µM, active compounds read high
Mark each entry Criterion met if its inhibition sits below 30%, and Criterion not met for all others.

# check: inhibition < 30% for CN(C)c1cccc2c1nc(-c1ccc3c(c1)CCO3)n2CCNCc1ccccc1 Criterion met

Next record, please: Cc1ccc(Cn2ncc(NC3CCNCC3)c(Cl)c2=O)cc1NC(=O)Nc1ccc(-c2ccccc2)cc1 Criterion met

Next record, please: COc1ccc2cc(C(=O)Nc3ccc4c(c3)CCN(C3CCC3)CC4)ccc2c1 Criterion not met

Next record, please: Nc1ccc(-c2nc3ccc(-c4ccc5nc(-c6ccc(N)cc6)[nH]c5c4)cc3[nH]2)cc1 Criterion not met

Next record, please: Cc1cccc2[nH]c(-c3ccc(-c4ccc(NC(=O)CN5CCN(C)CC5)cc4)cc3)nc12 Criterion met

----------
# experimentalProtocol: human hepatoma cell viability loss – ATP luminescence, cytotoxicity control for P. falciparum antimalarial project, primary screen (AID 2303);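 further: 0% = DMSO wells and 100% = digitonin-killed cells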
# experimentalSetup: HepG2 viability, 24-48 h, at 10 µM
Activity calls are given as the source filed them.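 The calls were made as follows: active = inhibition above 50%; inactive = the rest.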
Log the outcome using a class from active, inactive

Per the records of this test, what outcome belongs to COc1ccc2nccc([C@@H](O)CN3CCC(NCc4ccc5c(c4)oc(=S)n5C)CC3)c2c1 ? inactive

Next record, please: COc1ccc(Cl)cc1N1CCN(CCCNC(=O)c2ccc(-c3nc4cc(Cl)c(Cl)cc4[nH]3)c(C)c2)CC1 inactive

Next record, please: C/C=C/C=C/C1=NCCc2cc(OCCC)ccc21 inactive

Next record, please: CCCN(CCC)C(=O)c1cc(C(=O)N[C@@H](Cc2ccccc2)[C@H](O)CNC(C)(C)c2cccc(OC)c2)cc(N2CCCCS2(=O)=O)c1 inactive

Next record, please: CC(=O)c1c(Nc2c(C)cc(C)cc2C)oc(C)cc1=O inactive

Next record, please: N#Cc1cccc(Nc2cc(C(F)(F)F)nc(Nc3ccccc3)n2)c1 inactive

Next record, please: O=c1cc(NCCCCNCc2cccc(C(F)(F)F)c2)[nH]c2ccccc12 inactive

Next record, please: CN(C)CCOc1ccc(N2CCN(CCCCNC(=O)c3ccc(/C=C/c4cc(Cl)cc(Cl)c4)cc3)CC2)cc1 active

----------
# experimentalProtocol: inhibition of 3D7 malaria parasite growth – strain 3D7 (AID 2306);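 further: 0% = DMSO wells and 100% = chloroquine plus artemisinin control wells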
# experimentalSetup: P. falciparum 3D7 erythrocytic growth, LDH absorbance, 72 h; at 2 µM; active compounds read high
measurementKind: growth inhibition (%)
Write down the numeric answer in % and omit the unit.

Fill in the blank: the reported growth inhibition of CC(C)Nc1ccc(Nc2ccnc3cc4ccccc4cc23)cc1 is ____. 100

Next record, please: CCCCCCNCCOc1ccc(-c2nc(-c3ccccc3)c(-c3ccccc3)[nH]2)cc1 98

Next record, please: COc1ccc(-c2nc3cccnc3n2CC(=O)Nc2cc(Cl)c(Cl)cc2Cl)c(OC)c1 100

Next record, please: NC1CCN(Cc2ccc(-c3ccc(-c4nc5ccccc5[nH]4)s3)cc2)C1 (configuration not stated) 101

Next record, please: COc1ccc(CNCc2ccccc2)cc1-c1ccc(S(=O)(=O)NCCN2CCCC2)c(F)c1 87

Next record, please: COCn1ccc2c3c(N)nc(N)nc3ccc21 88

Next record, please: Cc1cccc2[nH]c(-c3ccc(-c4cccc(CNCc5ccccc5)c4)s3)nc12 99

Next record, please: CCCN(CC1CC1)c1ncc(-c2ccccc2CNCc2ccccc2O)cn1 100

Next record, please: CCCCCCN1CCC(NCc2ccc(C)cc2)CC1 93

Next record, please: COCCCNc1sc(S(=O)(=O)c2ccccc2)nc1S(=O)(=O)c1ccc(C)cc1 84

Next record, please: Clc1ccc2nnc(-c3c(Cl)cccc3Cl)n2n1 96

Next record, please: Nc1ccc(-c2nc3ccc(Oc4ccc5nc(-c6ccc(N)cc6)[nH]c5c4)cc3[nH]2)cc1 100

Next record, please: CC(C)Nc1nc(NCCc2cnc[nH]2)nc(NCc2ccc(Cl)c(Cl)c2)n1 88

Next record, please: Nc1nc(N)c2c(Cc3ccccc3)cccc2n1 94

Next record, please: O=C(Nc1cccc(-c2ccc(-c3nc4ccc(F)cc4[nH]3)cc2)c1)Nc1ccc(F)c(F)c1F 98

Next record, please: N#Cc1ccc2c(c1)CCN(CCC1CCC(NC(=O)/C=C/c3c[nH]c4ccc(F)cc34)CC1)CC2 (configuration not stated) 101

Next record, please: CCCN(CCC)CCCN(CCCN(CCC)CCC)c1cc(C)nc(Nc2ccc(Cl)cc2)n1 101

----------
# experimentalProtocol: antimalarial activity against Dd2 strain (AID 2302);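 further: 0% = DMSO untreated growth and 100% = chloroquine plus artemisinin killed control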
# experimentalSetup: P. falciparum Dd2 in RBCs, LDH growth readout, 72 h; at 2 µM; active compounds read high
Active and inactive are the calls of the source.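 Rule for the calls: active = growth inhibition above 50% at the single 2 µM test dose, taken to imply half-maximal potency below 2 µM; inactive = the rest.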
measurementKind: growth inhibition

Fill in the blank: the reported growth inhibition of COc1ccc(CN2CCCN(Cc3cccc(C(=O)Nc4ccc(C)c(F)c4)c3)CC2)cc1 is ____. 10% (inactive)

Next record, please: CCCC(CNCc1cccc(SC(F)(F)F)c1)CNc1cc(=O)c2ccccc2[nH]1 (configuration not stated) 87% (active)

Next record, please: O=C(/C=C/c1ccc(Cl)c(Cl)c1)NC1CCC(CN2CCC(Cc3cc4ccccc4[nH]3)CC2)CC1 (configuration not stated) 74% (active)

Next record, please: O=C(Nc1ccncc1)Nc1ccc2c(c1)CCN(C1CCC1)CC2 4% (inactive)

Next record, please: CCCCCOc1ccc(C(O)C(CN2CCCCC2)c2ccccc2)cc1 (configuration not stated) 95% (active)

Next record, please: O=S(=O)(c1ccc(OCc2ccc(Cl)cc2)cc1)c1cc2c(cc1OCc1ccccc1)CCN(CC1CC1)CC2 -2% (inactive)

Next record, please: COc1cccc(C2=CC(c3ccccc3)n3ncc(C(=O)Nc4ccc(Cl)cc4)c3N2)c1 (configuration not stated) 28% (inactive)

Next record, please: COc1cc2nc(N[C@@H](CO)c3ccccc3)nc(NCc3ccccc3)c2cc1OC 71% (active)

Next record, please: Oc1ccc(CN2CC[C@@H](N3CCN(CCc4ccccc4)CC3)[C@H](O)C2)cc1Cl 77% (active)

Next record, please: COc1ccc(C(=O)Nc2cc(Br)c3c(c2)CNCC3)cc1Br 8% (inactive)

Next record, please: CN1CCN(CC(=O)Nc2ccc(-c3ccc(-c4nc5ccc(C(F)(F)F)cc5[nH]4)cc3)cc2)CC1 98% (active)

Next record, please: CN1CCN(c2ccc(Nc3c4ccccc4nc4ccccc34)cc2)CC1 94% (active)

Next record, please: CC1CN(Cc2ccc(C#N)cc2)CCN1c1ccc(NC(=O)c2cccs2)cc1 (configuration not stated) 89% (active)

Next record, please: Cc1cccc2[nH]c(-c3ccc(-c4cccc(NC(=O)NCc5ccccc5)c4)cc3)nc12 0% (inactive)

Next record, please: CC(C)c1nc2c(N)nc(N)nc2nc1N -1% (inactive)

Next record, please: Cc1ccc(NC(=O)NC2CCN(c3ccnc4ccccc34)CC2)cc1 52% (active)

Next record, please: Cc1cccc(NC(=O)Nc2ccc(I)c(OCCN(C)C)c2)c1C 17% (inactive)

Next record, please: COc1cc2nc(N3CCC(CNC(=O)c4ccc(-c5ccc(C(=O)N(C)C)cc5O)cc4)CC3)nc(N)c2cc1OC 90% (active)

Next record, please: O=C(NCCNc1ccnc2cc(Cl)ccc12)c1ccccc1F 98% (active)

Next record, please: Cc1ccc(C2CC(c3cccs3)=NN2C(=O)c2ccc(Br)o2)cc1 (configuration not stated) 69% (active)

Next record, please: Cc1cc(NCCC(=O)NCCOc2ccccc2)nc(NCCc2ccccc2)n1 9% (inactive)

Next record, please: O=C(/C=C/c1ccc(Cl)c(Cl)c1)NCCCCCN1CCC(NC(=O)Nc2ccc(F)cc2F)CC1 23% (inactive)

Next record, please: COc1cccc2cc(C(=O)N[C@@H](CC(C)C)C(=O)N[C@H](/C=N/N3C(=O)CN(Cc4ccccc4)C3=O)CCc3ccccc3)oc12 52% (active)

Next record, please: Fc1ccc2nc(-c3ccc(-c4ccc(CNCCc5ccncc5)cc4)s3)[nH]c2c1 100% (active)

Next record, please: CCOc1ccc(C(C)NC(=O)c2ccc(OC)c(Br)c2)cc1OCC (configuration not stated) 100% (active)

Next record, please: CC(=O)Nc1nc(C(=O)Nc2cccc(-c3ccc4c(cnn4CC4CC4)c3)c2)cs1 67% (active)

Next record, please: CCC1N=C(N)N=C(N)N1OCc1cccc2ccccc12 (configuration not stated) 1% (inactive)

Next record, please: c1cc(-c2ccc(CNC3CCOCC3)cc2)cc(-c2nc3ccccc3[nH]2)c1 100% (active)

Next record, please: COc1ccc(NC(=O)Nc2cccc(-c3ccc(-c4nc5ccc(C(F)(F)F)cc5[nH]4)cc3)c2)cc1 29% (inactive)

Next record, please: Cc1nc2nc(N)nc(N)c2c(C)c1Cc1ccc(C(N)=O)cc1 -3% (inactive)

Next record, please: Cc1cc(Cc2ccc(S(=O)(=O)c3cc4c(cc3O)CCN(C)CC4)cc2)ccc1Cl 12% (inactive)

Next record, please: O=C(NC1CC1)C1CCN(Cc2cc3ccccc3n2Cc2ccc(Cl)cc2)CC1 96% (active)
